- Assay info: folding enthalpy; higher = less favourable; fluorescence melt of hairpins on a sequencing array, two-state fit
- Measurement parameters: sodium 0.088 M
Measurement name: folding enthalpy (kcal/mol)
All answers are understood in kcal/mol, so give the number only.

Need folding enthalpy of GCAGTTGGAAACAACTAC (.(((((....))))).) , thanks.
-17.1

Need folding enthalpy of GCGATGCGAAAGCTACGC (((..((....))..))) , thanks.
-18.1

Need folding enthalpy of GTGCGGACGAAAGTCCAC (((..(((....)))))) , thanks.
-12

Need folding enthalpy of GCGTAGGGAAACCTGTGC ((..(((....)))..)) , thanks.
-14.2

###

- Assay info: folding enthalpy; higher = less favourable; fluorescence melt of hairpins on a sequencing array, two-state fit
- Measurement parameters: sodium 0.088 M
Note to self: class labels come from recorded folding enthalpy, ranges listed here: low = under -40 kcal/mol, moderate = from -40 kcal/mol up to -20 kcal/mol, high = -20 kcal/mol and over

Here are 5 sequences together with their reported answers.
GATCCGACGCGGATC ((((((...)))))) = moderate
GGGGCGGCGAAAGCCCCC (((..(((....)))))) = high
GATCGATTGATCGATC ((((((....)))))) = low
GACCTTGAAAAAGGTC ((((((....)))))) = moderate
GGCTGAGGAAACTCAGTC (.(((((....))))).) = low

Input GCTCTTGCGAAAGCAAGC (((..(((....)))))) ; output its category
high

Input GATCGGGCCGCCGATC ((((((....)))))) ; output its category
moderate

###

- Assay info: melting temperature; fluorescence melt of hairpins on a sequencing array, two-state fit, raised by 9.35 °C to match UV melts
- Measurement parameters: sodium 0.088 M
Measurement name: Tm (°C)
All answers are understood in °C, so give the number only.

GGTAACGAAAGTTAGACC ((((((....)))..))) = 33.6
GATCTAAATGTAGATC ((((((....)))))) = 36.7
GTCACCGAAAGGTCGGAC ((((((....)))..))) = 34.3
GATCAGGGACCTGATC ((((((....)))))) = 54.3
GTTTCGGGAAACCAAAAC ((((.((....)).)))) = 35.1

Need Tm of GATCCATCATTGGATC ((((((....)))))) , thanks.
51.4

Need Tm of GATCTTACAGAAGATC ((((((....)))))) , thanks.
38.4

###

- Assay info: folding enthalpy; higher = less favourable; fluorescence melt of hairpins on a sequencing array, two-state fit
- Measurement parameters: sodium 0.088 M
Threshold rule: folding enthalpy greater than or equal to -30 kcal/mol is Condition met; below that, Condition not met.

Here are 8 sequences together with their reported answers.
GGTGATACGAAAGTAACC (((..(((....)))))) = Condition met
GTGGGCGAAAGCCCCCAC ((((((....)))..))) = Condition met
GCTGTCGGAAACAACAGC (((((.(....).))))) = Condition met
GCTAGTGGAAACGTTAGC ((((..(....)..)))) = Condition met
GGCTCGGGAAACCGGGTC (.(.(((....))).).) = Condition met
GATCGAAGTGTCGATC ((((((....)))))) = Condition not met
GCTTCTCGAAAGAGAGC (((.(((....)))))) = Condition met
GAGTGCGGAAACACACCC (.(((.(....).))).) = Condition met

Decide: folding enthalpy of GATCTTCGATAAGATC ((((((....)))))) >= -30 kcal/mol?
Condition met

Decide: folding enthalpy of GTGTGCGAAAGCAGCCAC ((((((....)))..))) >= -30 kcal/mol?
Condition met

###

Here, each record is paired with measured folding enthalpy data.
- Assay info: folding enthalpy; higher = less favourable; fluorescence melt of hairpins on a sequencing array, two-state fit
- Measurement parameters: sodium 0.088 M
All answers are understood in kcal/mol, so give the number only.

GCGTTTCTACGC ((((....)))) = -23.3
CGTAAGCGGAAACGCACG (((..(((....)))))) = -22.6
GAGGAGGGAAACCTCTTC ((.((((....)))).)) = -27.7

Need folding enthalpy of GATCGAAAGCTCGATC ((((((....)))))) , thanks.
-29.6

Need folding enthalpy of CGAACGGAAACGTTCTCG ((((((....)))..))) , thanks.
-11.2

Need folding enthalpy of GCATCGCGAAAGCGTCGC ((..(((....)))..)) , thanks.
-11.5

Need folding enthalpy of GTGCACGAAAGTGGCCAC ((((((....)))..))) , thanks.
-13.3

Need folding enthalpy of GCCTTGCGAAAGCCTGGC (((..((....))..))) , thanks.
-18.7

Need folding enthalpy of GTCATCCGAAAGGAAGAC (((.(((....))).))) , thanks.
-29.9

###

- Assay info: melting temperature; fluorescence melt of hairpins on a sequencing array, two-state fit, raised by 9.35 °C to match UV melts
- Measurement parameters: sodium 0.088 M
Here, each record is paired with measured Tm data.
All answers are understood in °C, so give the number only.

GCAGAGGGAAACCCCTGC ((((.((....)).)))) = 49

Need Tm of GCGTATCGAAAGATCCGC (((.(((....))).))) , thanks.
50.2

Need Tm of GTAGTCCGAAAGGAATAC (((.(((....))).))) , thanks.
49.7

Need Tm of GCGGGAGTCCGC ((((....)))) , thanks.
55.7

Need Tm of AGTGGGAAACCACT (((((....))))) , thanks.
49.8

Need Tm of GACCGCCGAAAGGCAGTC (((.(((....))).))) , thanks.
54.3

###

- Assay info: melting temperature; fluorescence melt of hairpins on a sequencing array, two-state fit, raised by 9.35 °C to match UV melts
- Measurement parameters: sodium 0.088 M
Here, each record is paired with measured Tm data.
All answers are understood in °C, so give the number only.

GCGCGAGGAAACCCGCGC (((((.(....).))))) = 69.1

Need Tm of GATCCAGCGCTGGATC ((((((....)))))) , thanks.
60.1

Need Tm of TTTCGGAAACGAAA (((((....))))) , thanks.
40.6

Need Tm of GCCGTGCGAAAGCCGGGC (((..((....))..))) , thanks.
65.3

###

Here, each record is paired with measured Tm data.
- Assay info: melting temperature; fluorescence melt of hairpins on a sequencing array, two-state fit, raised by 9.35 °C to match UV melts
- Measurement parameters: sodium 0.088 M
All answers are understood in °C, so give the number only.

Look over these answered cases.
GTTTCCGAAAGGACAAC ((((((....))).))) = 39.6
GCGGCTGCCGC ((((...)))) = 57.1
GCACGTGGAAACGCGTGC (((((.(....).))))) = 64.6
GCATTGCGAAAGCTTTGC (((..((....))..))) = 49.1
GATCCTCAATAGGATC ((((((....)))))) = 49.5

Need Tm of GGGCAAGGAAACTCGCCC ((((.((....)).)))) , thanks.
50.7

Need Tm of GCTTGGCGAAAGCCTAGC (((.(((....))).))) , thanks.
57.6

Need Tm of GCTCCTCGAAAGAGAAGC (((.(((....))).))) , thanks.
46.1

Need Tm of GATCCACTTCTGGATC ((((((....)))))) , thanks.
50.2

Need Tm of GATCTGCTGACAGATC ((((((....)))))) , thanks.
50.5

Need Tm of GTTCCCGAAAGGGCGAAC ((((((....)))..))) , thanks.
31.5

Need Tm of GCGTTCGAAAGAAGCGC ((((((....))).))) , thanks.
52.5

###

- Assay info: melting temperature; fluorescence melt of hairpins on a sequencing array, two-state fit, raised by 9.35 °C to match UV melts
- Measurement parameters: sodium 0.088 M
Threshold rule: Tm greater than or equal to 50 °C is Yes; below that, No.

Here are 4 sequences together with their reported answers.
GTCGTGGGAAACCACAAC ((.((((....)))).)) = No
GGGGTAGCGAAAGCTCCC (((..(((....)))))) = Yes
GGACCACGAAAGTGTCC (((.(((....)))))) = Yes
GTGATTCGAAAGAACAC (((.(((....)))))) = No

Please find the next sequence below.
Decide: Tm of GCTGTCGGAAACAACAGC (((((.(....).))))) >= 50 °C?
No
